- assayedSystem: human HSL (Homo sapiens, UniProt Q05469)
- Construct: overlapping PCR to generate a full length human HSL ORF with a 3′-His6 tag; His6 (C)
- assayName: Human Hormone-Sensitive Lipase (HSL) Enzyme Inhibition Assay
- condition: colorimetric assay, 2,3-dimercapto-1-propanol tributyrate (DMPT) substrate, 37° C. for 20 minutes, absorbance at 405 nm; read-out: HSL hum IC50
assayEndpoint: pIC50
// pIC50 is dimensionless: -log10 of concentration (M)

Illustrative cases are given below, each with its answer.
CC(C)NC(=O)c1ccc(N2CCC3(CCN(S(=O)(=O)c4ccccc4Cl)CC3)C2=O)cc1    6.05
CC(C)(C)CC(=O)N1CCC2(CC1)CCN(c1ccc(C(O)C(F)F)cc1)C2=O (stereo not shown)    6.19
Cn1ccc(S(=O)(=O)N2CCC3(CCN(c4ccc(OC(F)(F)F)cc4)C3=O)CC2)n1    7.10

// field: pIC50; key: CCN(C(=O)N1CCC2(CC1)CCN(c1ccc(OC(F)(F)F)cc1)C2=O)C(C)C ; value = 7.10

###

- assayedSystem: human HSL (Homo sapiens, UniProt Q05469)
- Construct: overlapping PCR to generate a full length human HSL ORF with a 3′-His6 tag; His6 (C)
- Sequence (Q05469 1-1076): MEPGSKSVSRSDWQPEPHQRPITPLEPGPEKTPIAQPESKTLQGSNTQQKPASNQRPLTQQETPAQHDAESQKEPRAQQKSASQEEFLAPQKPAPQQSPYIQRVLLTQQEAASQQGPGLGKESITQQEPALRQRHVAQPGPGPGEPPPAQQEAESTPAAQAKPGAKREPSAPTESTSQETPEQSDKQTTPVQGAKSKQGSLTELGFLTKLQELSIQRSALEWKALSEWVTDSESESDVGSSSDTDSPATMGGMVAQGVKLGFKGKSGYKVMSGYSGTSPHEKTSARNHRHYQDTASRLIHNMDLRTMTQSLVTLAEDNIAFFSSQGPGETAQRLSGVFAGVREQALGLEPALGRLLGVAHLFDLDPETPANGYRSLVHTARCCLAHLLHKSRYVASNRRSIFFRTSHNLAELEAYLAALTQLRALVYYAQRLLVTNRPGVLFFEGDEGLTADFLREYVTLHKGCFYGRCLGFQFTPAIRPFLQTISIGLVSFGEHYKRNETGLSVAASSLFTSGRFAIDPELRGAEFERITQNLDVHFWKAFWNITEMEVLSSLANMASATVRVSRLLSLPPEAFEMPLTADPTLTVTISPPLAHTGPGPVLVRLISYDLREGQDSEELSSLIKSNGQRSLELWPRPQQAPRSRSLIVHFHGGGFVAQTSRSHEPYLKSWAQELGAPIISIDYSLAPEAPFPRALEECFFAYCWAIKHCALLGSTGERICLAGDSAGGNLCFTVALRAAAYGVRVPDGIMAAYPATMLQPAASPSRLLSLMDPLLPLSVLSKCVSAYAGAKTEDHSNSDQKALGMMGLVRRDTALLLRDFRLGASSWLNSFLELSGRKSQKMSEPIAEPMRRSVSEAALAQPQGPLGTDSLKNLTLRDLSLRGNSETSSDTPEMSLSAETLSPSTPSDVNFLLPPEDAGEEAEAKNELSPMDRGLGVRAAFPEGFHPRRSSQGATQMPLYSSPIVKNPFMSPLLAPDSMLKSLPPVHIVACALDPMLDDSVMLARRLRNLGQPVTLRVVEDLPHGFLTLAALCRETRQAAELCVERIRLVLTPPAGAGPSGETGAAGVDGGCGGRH
- assayName: Human Hormone-Sensitive Lipase (HSL) Enzyme Inhibition Assay
- condition: colorimetric assay, 2,3-dimercapto-1-propanol tributyrate (DMPT) substrate, 37° C. for 20 minutes, absorbance at 405 nm; read-out: HSL hum IC50
assayEndpoint: IC50 (nM)
Write the value in nM as a bare number.

Illustrative cases are given below, each with its answer.
CCn1ncc2cc(N3CCC4(CCN(S(=O)(=O)c5ccccc5Cl)CC4)C3=O)ccc21 [Example 126]    30
O=C(N1CCCC1)N1CCC2(CC1)CCN(c1ccc(OC(F)(F)F)cc1)C2=O [Example 265]    200
O=C(N1CCC2(CC1)CCN(c1ccc(OC(F)(F)F)cc1)C2=O)C1(O)CC1 [Example 219]    280

Attention now shifts to the item below.
// field: IC50; key: CCc1ccc(N2CCC3(CCN(C(=O)Nc4ccc(F)cc4)CC3)C2=O)cc1 [Example 258] ; value = 400

###

# Lookup of reported IC50 keyed by entry
- assayedSystem: human HSL (Homo sapiens, UniProt Q05469)
- Construct: overlapping PCR to generate a full length human HSL ORF with a 3′-His6 tag; His6 (C)
- assayName: Human Hormone-Sensitive Lipase (HSL) Enzyme Inhibition Assay
- condition: colorimetric assay, 2,3-dimercapto-1-propanol tributyrate (DMPT) substrate, 37° C. for 20 minutes, absorbance at 405 nm; read-out: HSL hum IC50
Write the value in nM as a bare number.

CC(C)N(C)C(=O)c1ccc(N2CCC3(CCN(S(=O)(=O)c4ccccc4Cl)CC3)C2=O)cc1 [Example 161]    380
CCCc1ccc(N2CCC3(CCN(C(=O)CC(C)(C)C)CC3)C2=O)cc1 [Example 31]    80
CC1CCCN1C(=O)N1CCC2(CC1)CCN(c1ccc(OC(F)(F)F)cc1)C2=O (centres unmarked) [Example 267]    150

// field: IC50; key: O=C1N(c2ccc(OC3CCCC3)cc2)CCC12CCN(S(=O)(=O)c1ccccc1Cl)CC2 [Example 128] ; value = 20

// field: IC50; key: CC(C)NC(=O)N1CCC2(CC1)CCN(c1ccc(OC(F)(F)F)cc1)C2=O [Example 254] ; value = 400

// field: IC50; key: CCc1ccc(N2CCC3(CCN(S(=O)(=O)CCC(F)(F)F)CC3)C2=O)cc1 [Example 30] ; value = 360

// field: IC50; key: O=C1N(CCc2ccc(Cl)cc2)CCC12CCN(S(=O)(=O)c1ccccc1Cl)CC2 [Example 47] ; value = 40

// field: IC50; key: CCc1ccc(CCN2CCC3(CCN(S(=O)(=O)c4ccccc4Cl)CC3)C2=O)cc1 [Example 237] ; value = 40

###

- assayedSystem: human HSL (Homo sapiens, UniProt Q05469)
- Construct: overlapping PCR to generate a full length human HSL ORF with a 3′-His6 tag; His6 (C)
- assayName: Human Hormone-Sensitive Lipase (HSL) Enzyme Inhibition Assay
- condition: colorimetric assay, 2,3-dimercapto-1-propanol tributyrate (DMPT) substrate, 37° C. for 20 minutes, absorbance at 405 nm; read-out: HSL hum IC50
- Method: Production of Human Full Length Hormone Sensitive Lipase-His^6 1) Cloning: cDNA was prepared from commercial human brain polyA-+ RNA and used as a template in overlapping PCR to generate a full length human HSL ORF with a 3′-His6 tag. […] Cells were thawed. […] The protein concentration was calculated from absorbance at 280 nm, using 280=0.67 cm-1 mg-1. […] HSL enzyme activity was measured by a colorimetric assay using 2,3-dimercapto-1-propanol tributyrate (Aldrich, St. Louis, Mo.) as a substrate. […]
# Lookup of reported IC50 keyed by entry
Write the value in nM as a bare number.

Illustrative cases are given below, each with its answer.
O=C1N(c2ccc(OC(F)(F)F)cc2)CCC12CCN(S(=O)(=O)CC(O)C1CC1)CC2 (centres unmarked)    160
CC(C)CS(=O)(=O)N1CCC2(CCN(c3ccc(C4CC4)cc3)C2=O)CC1    100
O=C1N(c2ccc(CC(F)(F)F)cc2)CCC12CCN(S(=O)(=O)c1ccccc1C(F)(F)F)CC2    80
CCc1ccc(N2CCC3(CCN(S(=O)(=O)c4ccccc4Cl)CC3)C2=O)cn1    110
O=C1N(c2ccc(OC(F)(F)F)cc2)CCC12CCN(S(=O)(=O)c1cnccc1Cl)CC2    140
CCc1ccc(N2CCC3(CCN(S(=O)(=O)N4CCOCC4)CC3)C2=O)cc1    270
O=C1N(c2ccc(CCC3CC3)cc2)CCC12CCN(S(=O)(=O)c1ccccc1OC(F)(F)F)CC2    60
CCN(C(=O)N1CCC2(CC1)CCN(c1ccc(OC(F)(F)F)cc1)C2=O)C1CCCCC1    140

Attention now shifts to the item below.
// field: IC50; key: CCC(C)Oc1ccc(N2CCC3(CCN(S(=O)(=O)c4ccccc4OC(F)(F)F)CC3)C2=O)cc1 (centres unmarked) ; value = 20

###

# Lookup of reported IC50 keyed by entry
- assayedSystem: human HSL (Homo sapiens, UniProt Q05469)
- Construct: overlapping PCR to generate a full length human HSL ORF with a 3′-His6 tag; His6 (C)
- assayName: Human Hormone-Sensitive Lipase (HSL) Enzyme Inhibition Assay
- condition: colorimetric assay, 2,3-dimercapto-1-propanol tributyrate (DMPT) substrate, 37° C. for 20 minutes, absorbance at 405 nm; read-out: HSL hum IC50
Write the value in µM as a bare number.

Illustrative cases are given below, each with its answer.
O=C1N(c2ccc(C(O)C(F)F)cc2)CCC12CCN(S(=O)(=O)c1ccccc1C(F)(F)F)CC2 (racemic)    0.04
O=C1N(c2ccc(OC(F)(F)F)cc2)CCC12CCN(S(=O)(=O)c1ccccc1)CC2    0.04
O=C1N(CCc2ccccc2Cl)CCC12CCN(S(=O)(=O)c1ccccc1Cl)CC2    0.21

// field: IC50; key: O=C1N(CCc2ccc(Cl)c(Cl)c2)CCC12CCN(S(=O)(=O)c1ccccc1Cl)CC2 ; value = 0.07

// field: IC50; key: COC/C=C/c1ccc(N2CCC3(CCN(S(=O)(=O)c4ccccc4OC(F)(F)F)CC3)C2=O)cc1 ; value = 0.05

// field: IC50; key: CN(CCc1ccccc1)C(=O)N1CCC2(CC1)CCN(c1ccc(OC(F)(F)F)cc1)C2=O ; value = 0.13

// field: IC50; key: CN(CCc1ccccn1)S(=O)(=O)N1CCC2(CCN(c3ccc(OC(F)(F)F)cc3)C2=O)CC1 ; value = 0.16

// field: IC50; key: O=C1N(CCc2ccccc2)CCC12CCN(S(=O)(=O)c1ccccc1Cl)CC2 ; value = 0.05

Attribution: patent US8329904B2
